Provide the reported PBM binding z-score of each item.
Test system: THRa:RXRa (NR concentration 90 nM, RXRa partner concentration 90 nM)
Assay: PBM binding z-score (relative to random genomic background probes); higher = stronger binding; sequences stand for … in GC…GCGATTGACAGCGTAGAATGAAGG
One number for each entry.

# Residue String, PBM binding z-score
records = [
    ("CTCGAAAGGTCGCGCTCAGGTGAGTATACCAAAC", 4.23),
    ("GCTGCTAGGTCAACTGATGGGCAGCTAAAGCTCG", 2.68),
]

For every item in the list below, what is its measured PBM binding z-score?
1. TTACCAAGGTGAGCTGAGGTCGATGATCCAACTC
2. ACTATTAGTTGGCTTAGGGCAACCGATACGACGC
3. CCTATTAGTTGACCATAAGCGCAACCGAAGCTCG
4. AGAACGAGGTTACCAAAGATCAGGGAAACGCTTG
5. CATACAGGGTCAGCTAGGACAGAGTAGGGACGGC

1: 4.48; 2: 0.788; 3: 0.364; 4: 2.31; 5: 3.54

---

Test system: RARg:RXRa (NR concentration 270 nM, RXRa partner concentration 90 nM)
Test: PBM binding z-score (relative to random genomic background probes); higher = stronger binding; sequences stand for … in GC…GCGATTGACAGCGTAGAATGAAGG
Provide the reported PBM binding z-score of each item.
Give bare numbers.

These solved cases illustrate the format of a correct answer.
# Residue String, Readout Type, Reading
data = [
    ("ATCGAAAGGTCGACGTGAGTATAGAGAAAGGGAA", "PBM binding z-score", 3.93),
    ("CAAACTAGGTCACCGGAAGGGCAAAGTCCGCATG", "PBM binding z-score", 6.48),
    ("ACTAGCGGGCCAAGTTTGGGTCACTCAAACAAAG", "PBM binding z-score", 2.14),
]

For every item in the list below, what is its measured PBM binding z-score?
1. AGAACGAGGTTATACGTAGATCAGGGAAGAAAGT
2. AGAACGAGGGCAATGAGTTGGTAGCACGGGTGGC
3. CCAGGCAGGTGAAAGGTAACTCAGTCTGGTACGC
4. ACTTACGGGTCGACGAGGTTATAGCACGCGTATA
5. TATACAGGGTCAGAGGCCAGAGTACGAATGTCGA
6. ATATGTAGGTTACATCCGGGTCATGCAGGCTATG

[1.69, 0.857, 0.784, 2.39, 4.21, 3.76]

For every item in the list below, what is its measured PBM binding z-score?
1. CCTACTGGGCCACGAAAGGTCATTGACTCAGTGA
2. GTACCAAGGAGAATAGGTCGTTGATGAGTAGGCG

4.9
0.268

---

System: VDR homodimer (NR concentration 270 nM)
Assay: PBM binding z-score (relative to random genomic background probes); higher = stronger binding; sequences stand for … in GC…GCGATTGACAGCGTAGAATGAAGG
Entry flag: Satisfied if PBM binding z-score reaches 0.2; Not satisfied if it does not.

# Residue String, Class Assignment
records = [
    ("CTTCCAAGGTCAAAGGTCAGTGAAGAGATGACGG", "Satisfied"),
]

Could you please find out whether `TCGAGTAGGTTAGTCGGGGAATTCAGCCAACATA` has PBM binding z-score that meets 0.2 or exceeds it?
Not satisfied

Could you please find out whether `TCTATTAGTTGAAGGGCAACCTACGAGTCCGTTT` has PBM binding z-score that meets 0.2 or exceeds it?
Satisfied

Could you please find out whether `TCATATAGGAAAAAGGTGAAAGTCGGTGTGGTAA` has PBM binding z-score that meets 0.2 or exceeds it?
Not satisfied

Could you please find out whether `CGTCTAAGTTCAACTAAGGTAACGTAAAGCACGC` has PBM binding z-score that meets 0.2 or exceeds it?
Satisfied

Values were extracted from the supplement of paper PMC6555819.
